Test system: SW-620
Test method notes: NCI tumour cell line growth inhibition, 48 h
Active and inactive are the calls of the source. No stated cut-off is given here; in the data, active = GI50 up to about 1.1 µM and inactive = higher.
Quick reference for GI50 among some compounds

Example compounds with recorded GI50:
[[record]]
compound = "COCCOC(=O)C(C)=[N+]=[N-]"
recorded_result = "> 100 µM (inactive)"

[[record]]
compound = "CCCCCCCCC(C)CCCCCCCCC(=O)OCC(COP(=O)([O-])OCC[N+](C)(C)C)OC(=O)CCCCCCCCC(C)CCCCCCCC (stereo not given)"
recorded_result = "> 100 µM (inactive)"

[[record]]
compound = "O=C(/C=C/c1ccc(O)c(O)c1)OCC(OC(=O)/C=C/c1ccc(O)c(O)c1)C(=O)O (stereo not given)"
recorded_result = "50.8 µM (inactive)"


Look up GI50 for this compound: S=C1NN=C2C(=C3CCCC4C5CCCCC5N2C34)N1 (stereo not given)
> 100 µM (inactive)

Entry O=C1Oc2ccccc2C(=O)/C1=C/N1C(=O)/C(=C/c2ccc([N+](=O)[O-])cc2)SC1=S please
21.8 µM (inactive)

How about C(=N\c1ccc(-c2nc3ccccc3[nH]2)cc1)/c1ccco1 ?
89.1 µM (inactive)

Ok, now COC(=O)c1sc2c(Cl)c(Cl)sc2c1Cl
> 100 µM (inactive)

Same read-out for NC(=S)N/N=C/C1NCCC2CCCCC21 (stereo not given) ?
0.568 µM (active)

Now this one: Cc1ccc2c(c1)[nH]c(=S)n2/C=C1\C(=O)Oc2ccccc2C1=O
52.6 µM (inactive)

Query N#Cc1c(N)oc2cc3c(C#N)c(N)oc3cc12 next
> 100 µM (inactive)

How about this compound: CN(C)c1snc2c1c(=O)n(C)c(=O)n2C
> 100 µM (inactive)

And what about the compound COC(=O)[C@@H]1C2OC(C)(C)OC2CN1C(=O)OCc1ccccc1 (stereo not given in full) ?
> 100 µM (inactive)

How about this compound: COC(=O)c1sc(=S)sc1SCc1cccc(CSc2sc(=S)sc2C(=O)OC)c1
> 100 µM (inactive)

// query: CSC1SCC2C(=O)N(C)C3(CC3C)C(=O)OCC(NC(=O)c3nc4ccccc4cc3O)C(=O)NC(C)C(=O)N(C)C1C(=O)N(C)C1(CC1C)C(=O)OCC(NC(=O)c1nc3ccccc3cc1O)C(=O)NC(C)C(=O)N2C (stereo not given)
< 0.0001 µM (active)

How about this compound: CCOC(=O)C1C(=O)CC(C)(O)C(C(=O)OCC)C1c1ccc(O)c(OC)c1 (stereo not given)
> 100 µM (inactive)

Please give the result for CCC(NC1=NCCO1)c1cccs1 (stereo not given) too.
24.3 µM (inactive)

Check Nc1nc(=O)n(C2OC(CO)C(O)C2O)cc1F (stereo not given) too.
22.2 µM (inactive)

Input O=C(CSc1nnc(-c2ccc(/N=C\c3ccc(Cl)cc3)cc2)o1)Nc1cccc(Cl)c1
> 100 µM (inactive)

Field entry: COc1cc(C2SCC(=O)N2c2ccc(-n3c(-c4ccccc4)nc4ccccc4c3=O)cc2)cc(OC)c1OC (stereo not given)
> 100 µM (inactive)

Do the same for CN(Cc1cnc2nc(N)nc(N)c2n1)c1ccc(C(=O)NC(CCC(=O)NC(P(=O)(O)O)P(=O)(O)O)C(=O)O)cc1 (stereo not given) please
6.84 µM (inactive)

Recorded values, source ChEMBL document CHEMBL1201862.
